assay: Binding affinity to decoding-site of rRNA in rabbit reticulocytes assessed as inhibition of protein translation after 60 mins by coupled transcription/translation assay; type: cell-based, Oryctolagus cuniculus
What log10 of IC50 was measured for each of the following?
Remember, log10 of IC50, in µM.

# annotated cases, reported log10 of IC50 shown
compound | test value
NC[C@H]1O[C@H](O[C@@H]2[C@@H](O)[C@H](N)C[C@H](N)[C@H]2O[C@H]2O[C@H](CO)[C@@H](O)[C@H](O)[C@H]2N)[C@H](O)[C@@H]1O.O=S(=O)(O)O | 3.64
N[C@H]1[C@@H](O[C@H]2[C@H](O)[C@@H](O)[C@H](N)C[C@@H]2N)O[C@@H](C(=O)O)[C@@H](O)[C@@H]1O.O=S(=O)(O)O | 1.48
N[C@H]1[C@@H](O[C@H]2[C@H](O)[C@@H](O)[C@H](N)C[C@@H]2N)O[C@H](CO)[C@@H](O)[C@@H]1O.O=S(=O)(O)O [PAROMAMINE SULFATE] | 2.90
NC[C@H]1O[C@H](O[C@@H]2[C@@H](O)[C@H](N)C[C@H](N)[C@H]2O[C@H]2O[C@@H](C(N)=O)[C@@H](O)[C@H](O)[C@H]2N)[C@H](O)[C@@H]1O.O=S(=O)(O)O | 1.30
NC(=O)[C@@H]1O[C@H](O[C@H]2[C@H](O)[C@@H](O)[C@H](N)C[C@@H]2N)[C@H](N)[C@@H](O)[C@@H]1O.O=S(=O)(O)O | 2.85
C[C@H](N)[C@H]1O[C@H](O[C@@H]2[C@@H](O)[C@H](N)C[C@H](N)[C@H]2O[C@H]2O[C@@H](C(=O)O)[C@@H](O)[C@H](O)[C@H]2N)[C@H](O)[C@@H]1O.O=S(=O)(O)O | 2.78

Go through the items and report each one's log10 of IC50.
1. NC[C@H]1O[C@H](O[C@@H]2[C@@H](O)[C@H](N)C[C@H](N)[C@H]2O[C@H]2O[C@@H](C(=O)O)[C@@H](O)[C@H](O)[C@H]2N)[C@H](O)[C@@H]1O.O=S(=O)(O)O
2. C[C@H](N)[C@H]1O[C@H](O[C@@H]2[C@@H](O)[C@H](N)C[C@H](N)[C@H]2O[C@H]2O[C@H](CO)[C@@H](O)[C@H](O)[C@H]2N)[C@H](O)[C@@H]1O.O=S(=O)(O)O
3. C[C@H](N)[C@H]1O[C@H](O[C@@H]2[C@@H](O)[C@H](N)C[C@H](N)[C@H]2O[C@H]2O[C@@H](C(N)=O)[C@@H](O)[C@H](O)[C@H]2N)[C@H](O)[C@@H]1O.O=S(=O)(O)O

Resp:
2.70
3.50
2.72
